# SYSTEM TESTED: T1, memapsin 2 (Homo sapiens, UniProt P56817)
# T1 construct: pET-11 vector-derived residues 1-15 of promemapsin 2-T1 (N, cleaved yes); made in house; host or cells: E. coli
# T1 sequence (P56817 41-454 limits assumed): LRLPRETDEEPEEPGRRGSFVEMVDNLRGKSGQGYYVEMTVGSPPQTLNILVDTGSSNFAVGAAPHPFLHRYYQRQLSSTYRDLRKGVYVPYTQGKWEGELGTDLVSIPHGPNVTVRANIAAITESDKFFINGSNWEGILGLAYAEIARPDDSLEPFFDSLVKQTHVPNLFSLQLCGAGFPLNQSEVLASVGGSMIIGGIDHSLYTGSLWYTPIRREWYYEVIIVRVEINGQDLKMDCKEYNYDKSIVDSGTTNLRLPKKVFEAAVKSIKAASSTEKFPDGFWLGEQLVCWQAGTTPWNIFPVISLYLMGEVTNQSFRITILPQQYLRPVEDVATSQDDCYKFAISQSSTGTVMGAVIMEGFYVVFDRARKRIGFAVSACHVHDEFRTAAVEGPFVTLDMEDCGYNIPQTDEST
# MEASUREMENT NOTES: Inhibition of memapsin 2 proteolytic activity, fluorogenic substrate FS-2
# Format: biochemical
# PROTOCOL CONDITIONS: memapsin 2; independent of substrate, converted from Ki apparent; read-out: Ki
pKi: −log10 of the molar value.
REPORTED PROPERTY: pKi

COMPOUND	pKi
CSC[C@H](NC(=O)OC(C)(C)C)C(=O)N[C@@H](CC(C)C)[C@@H](O)C[C@@H](C)C(=O)N[C@H](C(=O)NCc1ccccc1)C(C)C [MMI-023]	5.02

I. CSCC[C@H](NC(=O)OCn1nc(C)cc1C)C(=O)N[C@@H](CC(C)C)[C@@H](O)C[C@@H](C)C(=O)N[C@H](C(=O)NCC(C)C)C(C)C [MMI-156]
II. CSCC[C@H](NC(=O)[C@@H](NC(=O)OC(C)(C)C)C(C)C)C(=O)N[C@@H](CC(C)C)[C@@H](O)C[C@@H](C)C(=O)N[C@@H](C(C)C)C1CC(Cc2ccccc2)CC(=O)O1 (stereo partly drawn) [MMI-141]
For I and II , which recorded pKi is lower? In your reply, give the label of the chosen option. II
